Origin of values: ChEMBL document CHEMBL3259650

# System: Shigella sonnei
# RUN DESCRIPTION: Antibacterial activity against Shigella sonnei ATCC 15305 assessed as growth inhibition after 24 hrs by micro dilution method
# Type: functional
# EXPERIMENTAL CONTEXT: ATCC 15305, 24 h
Quick reference for MIC among some molecules
Express the result in µg/mL but write the number alone.

Reference set, count: 6
* O=C1N(Cc2ccc(Cl)cc2)c2ccc(Cl)cc2C(O)C1(Cc1ccc(Cl)cc1)Cc1ccc(Cl)cc1 (centres undefined) | 50
* O=C1Nc2ccc(F)cc2C(O)C1(Cc1ccccc1)Cc1ccccc1 (centres undefined) | 25
* COc1cccc2c1NC(=O)C(Cc1ccccc1)(Cc1ccccc1)C2O (centres undefined) | 100
* CCN1C(=O)C(Cc2ccc(Cl)cc2)(Cc2ccc(Cl)cc2)C(O)c2cc(Cl)ccc21 (centres undefined) | 50
* COc1ccc(CC2(Cc3ccc(OC)cc3)C(=O)Nc3ccccc3C2O)cc1 (centres undefined) | 100
* COc1ccc2c(c1)C(O)C(Cc1ccccc1)(Cc1ccccc1)C(=O)N2 (centres undefined) | 100

Provide the documented MIC with Shigella sonnei as the system for CN1C(=O)C(Cc2ccccc2)(Cc2ccccc2)C(O)c2ccccc21 (centres undefined)
100

Provide the documented MIC with Shigella sonnei as the system for O=C1Nc2ccc(Cl)cc2C(O)C1(Cc1ccccc1)Cc1ccccc1 (centres undefined)
12.5

Provide the documented MIC with Shigella sonnei as the system for C[C@H]1COc2c(N3CCN(C)CC3)c(F)cc3c(=O)c(C(=O)O)cn1c23.C[C@H]1COc2c(N3CCN(C)CC3)c(F)cc3c(=O)c(C(=O)O)cn1c23.O
3.12
